The origin of these recorded values is patent US20240140931A1.

biological target: Human full-length SHP2 recombinant protein (Homo sapiens (Human)); assay: Assay of full-length SHP2 phosphatase activity; format: biochemical; conditions: DiFMUP substrate, with activating peptide
pIC50: −log10 of the molar value.
metric-name: pIC50

Look over these answered cases.
Problem: Field request: pIC50 | item: CNC(=O)C#Cc1ccc2c(c1)[C@@H](N)C1(CCN(c3cc(=O)n(-c4ccc(F)c(F)c4Cl)c(C)n3)CC1)C2 (atropisomer, axis not shown) [Compound 209]
Solution: 9.00

Problem: Query (molecule): CNC(=O)C#Cc1ccc2c(c1)[C@@H](N)C1(CCN(c3cc(=O)n(-c4cccc(OC)c4Cl)c(C)n3)CC1)C2 (atropisomer, axis not shown) [Compound 181] ; field requested: pIC50
Solution: 7.36

Problem: Which measured pIC50 value corresponds to CNC(=O)C#Cc1ccc2c(c1)[C@@H](N)C1(CCN(c3cnc(Sc4ccnc(N)c4F)cn3)CC1)C2 [Compound 265] ?
Solution: 9.40

[a] CCNC(=O)C#Cc1ccc2c(c1)[C@@H](N)C1(CCN(c3cnc(N4CCCc5ncccc54)nn3)CC1)C2 [Compound 244]
[b] Cc1nc(Sc2ccnc(N)c2Cl)c(N)nc1N1CCC2(CC1)Cc1ccc(C#CC(=O)N(C)C)cc1[C@H]2N [Compound 203]
Problem: Could you determine which record has the numerically smaller pIC50? Candidates: a and b Field: selected label. Fill in the label of the entry you choose.
Solution: a

[A] Cc1nc(N2CCC3(CC2)Cc2ccc(C#CCN(C)C)cc2[C@H]3N)cc(=O)n1-c1cccc(F)c1Cl [Compound 74]
[B] C#Cc1ccc2c(c1)[C@@H](N)C1(CCN(c3nc(C)n(-c4ccc(OCC)cc4Cl)c(=O)c3C)CC1)C2 [Compound 92]
[C] CC#Cc1ccc2c(c1)[C@@H](N)C1(CCN(c3cc(=O)n(-c4ccc(F)c(Cl)c4Cl)c(C)n3)CC1)C2 (atropisomer, axis not shown) [Compound 220]
[D] CCNC(=O)C#Cc1ccc2c(c1)[C@@H](N)C1(CCN(c3cnc(N4CCCc5ncccc54)cn3)CC1)C2 [Compound 243]
[E] C#Cc1ccc2c(c1)[C@@H](N)C1(CCN(c3nc(C)n(-c4cccc(Cl)c4Cl)c(=O)c3C)CC1)C2 (atropisomer, axis not shown) [Compound 48]
Problem: Provide the items ranked by increasing pIC50. Return value: ordered labels per request.
Solution: C, E, B, A, D
